Cited source for all entries: patent US20210324028A1

target: T1, human IL-15Rα (human, UniProt Q13261 31-205, limits assumed); assay: SPR, steady state
T1 construct: also called hIL-15Rα; IL-15 receptor alpha
T1 sequence (Q13261 31-205 limits assumed): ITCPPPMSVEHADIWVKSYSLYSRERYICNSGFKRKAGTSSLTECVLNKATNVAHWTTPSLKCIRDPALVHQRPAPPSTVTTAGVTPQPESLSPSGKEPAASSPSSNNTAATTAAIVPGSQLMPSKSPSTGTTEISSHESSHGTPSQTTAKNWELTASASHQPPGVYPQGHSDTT
observed-property: Kd (µM)

{"binder": "hIL-15 V49R/H32P (ligand) NWVNVISDLKKIEDLIQSMHIDATLYTESDVPPSCKVTAMKCFLLELQRISLESGDASIHDTVENLIILANNSLSSNGNVTESGCKECEELEEKNIKEFLQSFVHIVQMFINTGGGGSGHHHHHHHHGGGLNDIFEAQKIEWHE", "units": "µM", "test-value": 0.162}
{"binder": "hIL-15 V49R/Q108S (ligand) NWVNVISDLKKIEDLIQSMHIDATLYTESDVHPSCKVTAMKCFLLELQRISLESGDASIHDTVENLIILANNSLSSNGNVTESGCKECEELEEKNIKEFLQSFVHIVSMFINTGGGGSGHHHHHHHHGGGLNDIFEAQKIEWHE", "units": "µM", "test-value": 0.144}
{"binder": "hIL-15 V49R/I68D (ligand) NWVNVISDLKKIEDLIQSMHIDATLYTESDVHPSCKVTAMKCFLLELQRISLESGDASIHDTVENLIDLANNSLSSNGNVTESGCKECEELEEKNIKEFLQSFVHIVQMFINTGGGGSGHHHHHHHHGGGLNDIFEAQKIEWHE", "units": "µM", "test-value": 0.106}
{"binder": "hIL-15 V49R/N72S (ligand) NWVNVISDLKKIEDLIQSMHIDATLYTESDVHPSCKVTAMKCFLLELQRISLESGDASIHDTVENLIILANSSLSSNGNVTESGCKECEELEEKNIKEFLQSFVHIVQMFINTGGGGSGHHHHHHHHGGGLNDIFEAQKIEWHE", "units": "µM", "test-value": 0.118}
